Here, each record is paired with measured IC50 data.
# TARGET_SYSTEM: human A2A receptor (Homo sapiens, UniProt P29274)
# Sequence (P29274 whole entry): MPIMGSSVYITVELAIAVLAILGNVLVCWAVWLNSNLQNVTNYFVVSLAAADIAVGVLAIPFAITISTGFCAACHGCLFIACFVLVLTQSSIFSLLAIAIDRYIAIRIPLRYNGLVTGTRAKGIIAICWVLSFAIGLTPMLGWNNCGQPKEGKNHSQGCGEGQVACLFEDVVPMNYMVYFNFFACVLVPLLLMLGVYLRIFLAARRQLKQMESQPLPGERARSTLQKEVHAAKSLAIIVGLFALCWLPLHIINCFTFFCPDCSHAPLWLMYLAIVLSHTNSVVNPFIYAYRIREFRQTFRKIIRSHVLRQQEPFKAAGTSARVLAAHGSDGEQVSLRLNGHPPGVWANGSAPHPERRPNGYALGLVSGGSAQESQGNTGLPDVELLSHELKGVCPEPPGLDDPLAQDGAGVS
# PROTOCOL_DETAILS: functional cAMP (HTRF) assay, recombinant HEK293 cells expressing human A2A receptor, agonist NECA

Inquiry: Field request: IC50 | item: COc1ccc(-c2cccnc2)c2nc(NC(=O)C3CC3)[nH]c12 [compound 315]
Reply text: < 0.1 µM

Inquiry: Bench note: what IC50 did COCCOc1cccc(-c2ccc(OC)c3nc(NC(=O)N4CCC(C)(O)CC4)[nH]c23)c1 [compound 236] show?
Reply text: < 0.01 µM

Inquiry: Item COc1ccc(-c2cnn(C)c2)c2nc(NC(=O)C3CNC(=O)C3)[nH]c12 (stereo not shown) [compound 246] has what recorded IC50?
Reply text: < 0.1 µM

Inquiry: Endpoint output: IC50 of COc1ccc(-c2ccccc2)c2nc(NC(=O)c3ccc(C(=O)N(C)C)cn3)[nH]c12 [compound 284] . Value?
Reply text: < 0.1 µM

Inquiry: What does the data say about its IC50? Entry: COc1ccc(C2CCOCC2)c2nc(NC(=O)c3ccnc(N4CCC5(CCOC5)C4)c3)[nH]c12 (stereo not shown) [compound 119]
Reply text: < 0.01 µM

Inquiry: Can you look up the measured IC50 of COc1ccc(-c2cnn(C3CN(C(=O)OC(C)(C)C)C3)c2)c2[nH]c(NC(=O)N3CCC(C)(O)CC3)nc12 [compound 245] for me?
Reply text: < 0.1 µM

Data provenance: patent US11453647B2
